- target.under.test: P2Y6 Y75A (Homo sapiens, UniProt Q15077, Y75A)
- Sequence (Q15077 whole entry Y75A): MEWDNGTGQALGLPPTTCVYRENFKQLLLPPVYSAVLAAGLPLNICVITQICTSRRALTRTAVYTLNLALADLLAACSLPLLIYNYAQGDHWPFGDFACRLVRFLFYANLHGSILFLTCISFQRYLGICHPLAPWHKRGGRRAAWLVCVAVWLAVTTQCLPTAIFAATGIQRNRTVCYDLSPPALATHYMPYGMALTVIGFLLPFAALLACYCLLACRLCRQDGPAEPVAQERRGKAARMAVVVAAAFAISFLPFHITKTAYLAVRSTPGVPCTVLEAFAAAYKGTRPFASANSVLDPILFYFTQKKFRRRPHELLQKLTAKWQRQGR
- assay.summary: IP1 accumulation assay, mutant P2Y6 Y75A
- assay.conditions: Fig. 6e
- Experimental: cDNA from H1819 cells was used to amplify and clone the P2RY6 and CNR2 coding sequences. […] To measure intracellular IP3 the HitHunter® Inositol (1,4,5) Triphosphate Assay (DiscoveRx, USA) was used according to manufacturer′s protocol. […] Reaction was stopped by adding 5 µl 0.2 N perchloric acid and measurement of IP3 was performed with the Fusion AlphaScreen multilabel reader (PerkinElmer Life Sciences) according to manufacturer′s protocol. […]
recorded.endpoint: EC50 (nM)
Give bare numbers, in nM.

EC50 reported for this compound O=c1ccn([C@@H]2O[C@H](COP(=O)(O)OP(=O)(O)O)[C@@H](O)[C@H]2O)c(=O)[nH]1 [UDP] : 15.4
